- experiment: qHTS assay to identify small molecule antagonists of the estrogen related receptor (ERR) signaling pathway - cell viability counter screen (AID 1224818);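 also: viability measured after 17.5 h of compound exposure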
- runConditions: ERR reporter cell line viability counter screen; series mostly up to 46.1 µM
Records with an inconclusive call do not appear. Calls of active or inactive are those of the source. Calls follow the shape of the dose curve; as a rule, active = well fitted cell-killing curve with a large enough effect in the repeat runs; inconclusive = weak or mixed curves; inactive = flat fitted curve, though single readings scatter.
readoutType: outcome

Example results:
>  <compound>
CCCN1CCc2cc(O)cc3c2[C@H]1Cc1ccc(O)c(O)c1-3

>  <readoutType>
outcome

>  <result>
inactive

$$$$
>  <compound>
CC(C)Oc1cccnc1N(C)C1CCN(Cc2ccccc2)CC1

>  <readoutType>
outcome

>  <result>
inactive

$$$$
>  <compound>
C[N+]1(C)CCc2cc3c(cc2[C@H]1[C@@H]1OC(=O)c2c1ccc1c2OCO1)OCO3

>  <readoutType>
outcome

>  <result>
inactive

$$$$
>  <compound>
CCCN1CCO[C@@H]2c3cc(O)ccc3OC[C@H]21

>  <readoutType>
outcome

>  <result>
inactive

$$$$

Provide reported outcome for each item, in the same order as listed.
1. CCCN1CCC[C@H](c2cccc(O)c2)C1
2. CC[C@@H](C(N)=O)N1CCCC1=O
3. NC1CC1c1ccccc1 (configuration not stated)
4. C[N+]1(C)CCN(c2ccccc2)CC1
5. CN1C2CCC1CC(OC(c1ccccc1)c1ccccc1N)C2 (configuration not stated)

Resp:
1: inactive; 2: inactive; 3: inactive; 4: inactive; 5: inactive

* * *

- experiment: qHTS assay to identify small molecule antagonists of the thyroid receptor (TR) signaling pathway - cell viability counter screen (AID 743064); also: nearly all actives have a fitted effect of over 50% in size
- runConditions: GH3.TRE-Luc viability, CellTiter-Fluor, 24 h; series mostly up to 70.3 µM
Inconclusive results are not listed. The source made the active and inactive calls. Calls follow the shape of the dose curve; as a rule, active = well fitted cell-killing curve with a large enough effect in the repeat runs; inconclusive = weak or mixed curves, or effect the other way; inactive = no such curve, though single readings can be large or run the other way.
Please state which outcome applies, choosing from active, inactive

Illustrative cases are given below, each with its answer.
>  <compound>
O=C1CCO1

>  <categoryLabel>
inactive

$$$$
>  <compound>
Cc1ccccc1-n1c(CF)nc2ccc(N)cc2c1=O

>  <categoryLabel>
inactive

$$$$
>  <compound>
CCNC1(c2cccs2)CCCCC1=O (configuration not stated)

>  <categoryLabel>
inactive

$$$$
>  <compound>
C[C@]12CC[C@H](O)C[C@H]1CC[C@@H]1[C@@H]2CC[C@]2(C)[C@@H](c3ccc(=O)oc3)C[C@H]3O[C@]132

>  <categoryLabel>
inactive

$$$$
>  <compound>
CN(C)CCCCCCN(C)C (tested in a mixture with another compound)

>  <categoryLabel>
inactive

$$$$

Req: Please let me know the test result on file for CC1COC(Cn2cncn2)(c2ccc(Oc3ccc(Cl)cc3)cc2Cl)O1 (configuration not stated) .
Resp: active

Req: Please let me know the test result on file for CC(C)[C@H]1C(=O)N2CCC[C@H]2[C@]2(O)O[C@](NC(=O)[C@@H]3C[C@@H]4c5cccc6[nH]cc(c56)C[C@H]4N(C)C3)(C(C)C)C(=O)N12 .
Resp: active

Req: Please let me know the test result on file for C[N+]1(C)[C@@H]2CC[C@H]1CC(OC(=O)c1c[nH]c3ccccc13)C2 (some centres not stated) .
Resp: inactive

Req: Please let me know the test result on file for CC(N)Cc1ccc2c(c1)OCO2 (configuration not stated) .
Resp: inactive

Req: Please let me know the test result on file for C=CCN(C1=NCCN1)c1c(Cl)cccc1Cl .
Resp: inactive

Req: Please let me know the test result on file for CC(C)=CCN1CC[C@]2(C)c3cc(O)ccc3C[C@H]1[C@H]2C .
Resp: inactive

Req: Please let me know the test result on file for CC(C)(O)[C@@H]1[C@H]2OC(=O)[C@@H]1[C@]1(O)C[C@H]3O[C@]34C(=O)O[C@H]2[C@]14C .
Resp: inactive

Req: Please let me know the test result on file for CO/C=C(/C(=O)OC)c1ccccc1Oc1cc(Oc2ccccc2C#N)ncn1 .
Resp: active

Req: Please let me know the test result on file for O=C1C[C@@H]2OCC=C3CN4CC[C@]56c7ccccc7N1[C@H]5[C@H]2[C@H]3C[C@H]46 (tested in a mixture with another compound) .
Resp: inactive

Req: Please let me know the test result on file for O=S(=O)(O)c1cc(O)ccc1O .
Resp: inactive

Req: Please let me know the test result on file for COc1cc(C[C@H](C)N)c(OC)cc1C .
Resp: inactive

Req: Please let me know the test result on file for CN(C)[C@H](Cc1ccccc1)c1ccccc1 .
Resp: inactive

Req: Please let me know the test result on file for C[C@]12CC[C@H]3[C@@H](CCC4=C(Cl)C(=O)CC[C@@]43C)[C@@H]1CC[C@@H]2O .
Resp: inactive

Req: Please let me know the test result on file for COc1ccc(OC)c(C[C@H](C)N)c1 .
Resp: inactive

Req: Please let me know the test result on file for C=C[C@H]1CN2CC[C@H]1C[C@@H]2[C@@H](O)c1ccnc2ccccc12 .
Resp: inactive

Req: Please let me know the test result on file for CCNC(C)Cc1cccc(C(F)(F)F)c1 (configuration not stated) .
Resp: inactive

Req: Please let me know the test result on file for CCC1(CC)C(=O)NC(=O)N(C)C1=O .
Resp: inactive
